ASSAY PROTOCOL: Cell Viability - LYMP2-007 (AID 979);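 note: cells exposed to compound for 24 h before reading; 0% = DMSO only and the negative end = 92 µM tetraoctylammonium bromide; nearly all actives have a fitted effect of over 60% in size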
SETTINGS: LYMP2-007 lymphoblastoid cell viability; series mostly up to 92.2 µM
Results filed as inconclusive are left out. Calls of active or inactive are those of the source. Calls come from the whole dose curve; as a rule, active = well fitted cell-killing curve with a large enough effect; inconclusive = small, poorly fitted or top-dose-only effect; inactive = flat fitted curve, though single readings scatter.
Valid outcomes are listed here; reply with one: Y for active, N for inactive

Exam item: // outcome(item) with item = Cc1ccc(O)cc1
Marked response: N

====

ASSAY PROTOCOL: Cell Viability - N2a (AID 540);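 note: cells exposed to compound for 40 h at 37 °C; nearly all actives have a fitted effect of over 45% in size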
SETTINGS: N2a mouse neuroblastoma cell viability
Inconclusive results are not listed. Calls of active or inactive are those of the source. The call rests on the fitted dose curve; in most records, active means well fitted cell-killing curve with a large enough effect; inconclusive means small, poorly fitted or top-dose-only effect; inactive means flat fitted curve, though single readings scatter.
Valid outcomes are listed here; reply with one: YES = active, NO = inactive

Example cases with answers are listed next.
Exam item: // outcome(item) with item = Cc1cc(C(C)(C)C)c(O)c(C(C)(C)C)c1
Marked response: NO

Exam item: // outcome(item) with item = CC(=O)OC/C=C(C)/C=C/C=C(C)/C=C/C1=C(C)CCCC1(C)C
Marked response: NO

Exam item: // outcome(item) with item = CCCCC(CC)COC(=O)c1ccccc1C(=O)O (stereo unspecified)
Marked response: NO

Exam item: // outcome(item) with item = COc1cc(C=O)ccc1O
Marked response: NO

Exam item: // outcome(item) with item = Cc1ccc(O)cc1
Marked response: NO

Kindly consider the entry below.
Exam item: // outcome(item) with item = Nc1ccc(O)cc1
Marked response: YES

====

ASSAY PROTOCOL: Cell Viability - HepG2 (AID 433);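 note: cells exposed to compound for 40 hours; potency for ATP loss meaning cytotoxicity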
SETTINGS: qHTS
Records with an inconclusive call do not appear. Activity calls are given as the source filed them. The call rests on the fitted dose curve.
Valid outcomes are listed here; reply with one: active, inactive

Example cases with answers are listed next.
Exam item: // outcome(item) with item = CCCCCCCCCCCCCCCC[n+]1ccccc1
Marked response: active

Exam item: // outcome(item) with item = Brc1ccccc1-c1ccccc1
Marked response: inactive

Exam item: // outcome(item) with item = Nc1cccc2c(N)cccc12
Marked response: inactive

More entries:
Exam item: // outcome(item) with item = Oc1ccccc1
Marked response: inactive

Exam item: // outcome(item) with item = COc1cc(C=O)ccc1O
Marked response: inactive

Exam item: // outcome(item) with item = C1=CC2C3C=CC(C3)C2C1 (centres undefined)
Marked response: inactive

Exam item: // outcome(item) with item = CC(C)(C)c1ccc(O)c(O)c1
Marked response: inactive

Exam item: // outcome(item) with item = Cc1ccc(O)cc1
Marked response: inactive

Exam item: // outcome(item) with item = OCc1c[nH]c2ccccc12
Marked response: inactive

====

System: Es-2
ASSAY PROTOCOL: Primary qHTS to identify gynecologic anti-cancer compounds using libraries of approved drugs and bioactive compounds (AID 1345084); note: nearly all actives have a fitted effect of over 55% in size
SETTINGS: Gynecologic cancer cell panel viability, ATPlite luminescence, 48 h; series mostly up to 57.5 µM
Records with an inconclusive call do not appear. Activity calls are given as the source filed them. The call rests on the fitted dose curve; in most records, active means well fitted cell-killing curve with a large enough effect; inconclusive means small, poorly fitted or top-dose-only effect, or effect the other way; inactive means flat fitted curve, though single readings scatter.
Valid outcomes are listed here; reply with one: true (1) = active, false (0) = inactive

Exam item: // outcome(item) with item = Cc1ccc(/C=N/n2c(-c3ccccc3)csc2=S)cc1
Marked response: false (0)

Exam item: // outcome(item) with item = COc1ccc2c(c1)CCCC2=O
Marked response: false (0)

Exam item: // outcome(item) with item = C[N+]1(C)CCC(OC(=O)C(O)(c2ccccc2)C2CCCC2)C1 (stereo unspecified)
Marked response: false (0)

Exam item: // outcome(item) with item = C=C(C)C(=O)OCC(O)CO (stereo unspecified)
Marked response: false (0)

Exam item: // outcome(item) with item = NC(=O)NS(=O)(=O)c1ccc(Cl)cc1
Marked response: false (0)

Exam item: // outcome(item) with item = COC(=O)/C=C(/C)N
Marked response: false (0)

Exam item: // outcome(item) with item = CCCN(CCC)C(=O)C(CCC(=O)OCCCN1CCN(CCOC(=O)Cc2c(C)n(C(=O)c3ccc(Cl)cc3)c3ccc(OC)cc23)CC1)NC(=O)c1ccccc1 (stereo unspecified)
Marked response: false (0)

Exam item: // outcome(item) with item = CN(C)C(=O)CNC(=O)Cc1ccccc1
Marked response: false (0)

Exam item: // outcome(item) with item = Cc1ccc2ccc(Cl)cc2n1
Marked response: false (0)

Exam item: // outcome(item) with item = CC(C)(C)c1cc(C=O)cc(C(C)(C)C)c1O
Marked response: false (0)

More entries:
Exam item: // outcome(item) with item = CC(C)NCCCC1(C(N)=O)c2ccccc2-c2ccccc21
Marked response: false (0)

Exam item: // outcome(item) with item = COC(=O)c1cc(S(N)(=O)=O)ccc1OC
Marked response: false (0)

Exam item: // outcome(item) with item = Cc1cc(CCCOc2c(C)cc(-c3noc(C(F)(F)F)n3)cc2C)on1
Marked response: false (0)

Exam item: // outcome(item) with item = CCOC(=O)c1ccc(O)c(O)c1
Marked response: false (0)

Exam item: // outcome(item) with item = COC(=O)c1cc(Cl)ccc1OC
Marked response: false (0)

Exam item: // outcome(item) with item = c1ccc(C(O[C@H]2CCCN(CCc3ccc4c(c3)OCO4)C2)c2ccccc2)cc1
Marked response: false (0)

Exam item: // outcome(item) with item = CCC(C(=O)OCCN1CCOC(c2ccccc2)C1C)c1ccccc1 (stereo unspecified)
Marked response: false (0)

Exam item: // outcome(item) with item = CC1CC(=O)NN=C1c1ccc(NCC(C)(C)NCC(O)COc2cc(Cl)ccc2C#N)cc1 (stereo unspecified)
Marked response: false (0)

Measured values drawn from PubChem BioAssay (NCATS) for this set.
